assay: method code SF-ESR, from DOI: 10.3109/10715769009149900, PMID: 2175281; details: pH 7.0
Field 'label' (enum: 1 / -1). Set to 1 when logD is strictly under 0.3; else -1.

>>> df
                                   compound  category_label
0                       CC1(C)C=CC(C)(C)N1O              -1
1                      CC1(C)C=CCC(C)(C)N1O              -1
2                    CC1(C)CC(O)CC(C)(C)N1O              -1
3  CC1(C)CC(C(N)=O)C(C)(C)N1O (configuration not stated)               1
4               CC1(C)C=C(C(N)=O)C(C)(C)N1O               1
5  CC1(C)CC(CO)C(C)(C)N1O (configuration not stated)              -1
6                   CC1(C)CC(=O)CC(C)(C)N1O               1
